molecular target: USP9X (Homo sapiens)
Sequence (Q93008 whole entry, species assumed): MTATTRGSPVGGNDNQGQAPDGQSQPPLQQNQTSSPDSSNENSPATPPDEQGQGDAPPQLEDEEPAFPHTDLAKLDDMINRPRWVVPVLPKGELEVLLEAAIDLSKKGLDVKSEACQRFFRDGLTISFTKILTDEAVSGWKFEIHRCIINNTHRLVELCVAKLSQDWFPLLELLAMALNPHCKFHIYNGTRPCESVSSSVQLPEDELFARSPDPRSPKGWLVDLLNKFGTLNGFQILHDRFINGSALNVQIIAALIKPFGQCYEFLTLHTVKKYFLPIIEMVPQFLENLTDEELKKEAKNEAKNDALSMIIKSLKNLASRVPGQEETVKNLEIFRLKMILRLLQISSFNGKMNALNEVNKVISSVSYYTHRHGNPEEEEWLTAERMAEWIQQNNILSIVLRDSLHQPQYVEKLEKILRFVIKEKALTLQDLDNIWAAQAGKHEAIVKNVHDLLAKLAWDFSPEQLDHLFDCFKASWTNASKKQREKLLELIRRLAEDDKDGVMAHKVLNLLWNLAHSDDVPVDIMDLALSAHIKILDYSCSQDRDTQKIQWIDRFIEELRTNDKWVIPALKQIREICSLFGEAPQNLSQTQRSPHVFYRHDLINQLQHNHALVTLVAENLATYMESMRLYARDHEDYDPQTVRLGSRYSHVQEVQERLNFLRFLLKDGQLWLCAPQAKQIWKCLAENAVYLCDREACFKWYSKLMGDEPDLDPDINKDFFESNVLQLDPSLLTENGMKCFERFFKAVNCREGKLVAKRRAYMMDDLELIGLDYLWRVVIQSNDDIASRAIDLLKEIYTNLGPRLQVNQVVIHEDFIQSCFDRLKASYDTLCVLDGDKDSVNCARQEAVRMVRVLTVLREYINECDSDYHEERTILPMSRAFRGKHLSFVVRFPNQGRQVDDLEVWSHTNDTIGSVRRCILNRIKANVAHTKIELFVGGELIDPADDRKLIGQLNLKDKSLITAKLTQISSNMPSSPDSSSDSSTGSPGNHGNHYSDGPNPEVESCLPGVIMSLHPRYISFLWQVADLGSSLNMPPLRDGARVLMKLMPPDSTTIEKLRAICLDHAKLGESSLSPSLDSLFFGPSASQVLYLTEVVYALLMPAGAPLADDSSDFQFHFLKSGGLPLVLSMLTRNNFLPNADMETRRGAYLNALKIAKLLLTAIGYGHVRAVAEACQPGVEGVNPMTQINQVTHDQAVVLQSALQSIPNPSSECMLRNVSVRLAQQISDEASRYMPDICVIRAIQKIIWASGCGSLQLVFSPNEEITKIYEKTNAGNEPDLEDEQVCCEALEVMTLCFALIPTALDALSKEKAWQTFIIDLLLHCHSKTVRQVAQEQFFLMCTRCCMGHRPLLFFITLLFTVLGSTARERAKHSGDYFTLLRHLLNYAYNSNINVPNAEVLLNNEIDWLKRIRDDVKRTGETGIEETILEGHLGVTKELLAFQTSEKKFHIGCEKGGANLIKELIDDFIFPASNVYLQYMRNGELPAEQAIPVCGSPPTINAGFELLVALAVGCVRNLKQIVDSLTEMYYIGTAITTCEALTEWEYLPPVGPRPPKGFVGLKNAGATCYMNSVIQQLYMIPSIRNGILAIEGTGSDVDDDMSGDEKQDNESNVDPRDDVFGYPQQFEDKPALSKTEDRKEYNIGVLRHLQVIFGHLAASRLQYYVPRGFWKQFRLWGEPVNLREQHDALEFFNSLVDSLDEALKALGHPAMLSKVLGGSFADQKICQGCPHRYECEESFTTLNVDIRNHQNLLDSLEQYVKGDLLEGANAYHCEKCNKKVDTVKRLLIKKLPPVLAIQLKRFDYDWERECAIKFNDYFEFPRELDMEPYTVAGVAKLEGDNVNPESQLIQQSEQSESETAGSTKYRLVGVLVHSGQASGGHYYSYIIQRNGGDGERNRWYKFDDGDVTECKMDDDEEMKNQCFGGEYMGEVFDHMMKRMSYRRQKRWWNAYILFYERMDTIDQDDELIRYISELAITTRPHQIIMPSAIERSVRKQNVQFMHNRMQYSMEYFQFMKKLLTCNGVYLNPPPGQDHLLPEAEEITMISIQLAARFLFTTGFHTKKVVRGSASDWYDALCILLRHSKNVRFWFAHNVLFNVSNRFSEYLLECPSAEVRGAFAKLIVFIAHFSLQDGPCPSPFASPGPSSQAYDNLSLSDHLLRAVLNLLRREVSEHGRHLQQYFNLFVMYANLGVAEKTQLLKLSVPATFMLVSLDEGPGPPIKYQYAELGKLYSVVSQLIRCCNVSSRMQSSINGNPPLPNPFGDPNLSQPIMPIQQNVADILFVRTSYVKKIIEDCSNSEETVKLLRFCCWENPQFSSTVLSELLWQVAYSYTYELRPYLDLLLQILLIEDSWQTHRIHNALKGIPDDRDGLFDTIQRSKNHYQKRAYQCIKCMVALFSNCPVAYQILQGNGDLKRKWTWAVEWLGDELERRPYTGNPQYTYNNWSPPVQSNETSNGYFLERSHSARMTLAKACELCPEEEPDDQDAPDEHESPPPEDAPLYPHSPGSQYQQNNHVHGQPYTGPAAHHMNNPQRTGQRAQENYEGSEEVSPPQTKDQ
pIC50: −log10 of the molar value.
Measured pIC50, listed per entry.

COMPOUND	ENDPOINT RESULT
O=C([C@@H](CO)c1ccccc1)N1CC2=C(C1)CN(S(=O)(=O)c1cnc3c(c1)OCCO3)C2 [Example C-7]	5.70 to 6.70

Data request: Can you look up pIC50 on USP9X (Homo sapiens) for O=C([C@H](CO)c1ccccc1)N1CC2=C(C1)CN(S(=O)(=O)c1cnc3c(c1)OCCO3)C2 [Example C-8] ?
Data returned: 4.60 to 5.70
